ASSAY_PROTOCOL: Quantitative High-Throughput drug screen in 47 multiple myeloma cell lines against the NCATS MIPE library collection: FR4_PLB cell viability assay (AID 1918924; also: nearly all actives have a fitted effect of over 35% in size; also: potency is read from the fitted curve at half-maximal effect)
CONDITION_DESCRIPTION: FR4_PLB myeloma cells viability, CellTiter-Glo ATP, 48 h; series mostly up to 45.8 µM
Results filed as inconclusive are left out. The source made the active and inactive calls. Calls follow the shape of the dose curve; as a rule, active = well fitted cell-killing curve with a large enough effect; inconclusive = small, poorly fitted or top-dose-only effect, or effect the other way; inactive = no such curve, though single readings can be large or run the other way.
READOUT: Potency

INSERT INTO results (chemical_string, assay_result) VALUES
  ('CN1CCC(=C2c3ccccc3CCc3sccc32)CC1', 'inactive'),
  ('CCCCc1ccc2nc(NC(=O)OC)[nH]c2c1', '0.0021 µM (active)'),
  ('CS(=O)(=O)OCCCCOS(C)(=O)=O', '4.18 µM (active)'),
  ('Cc1cc(C2CCCCC2)n(O)c(=O)c1', '6.62 µM (active)'),
  ('Cc1nc(-c2ccc(OCC(C)C)c(C#N)c2)sc1C(=O)O', 'inactive'),
  ('O=P(O)(O)C(O)(Cn1ccnc1)P(=O)(O)O', 'inactive'),
  ('C[C@H](Cn1cnc2c(N)ncnc21)OCP(=O)(O)O', 'inactive');
